- TEST DETAILS: LUMO level estimated from cyclic voltammetry (CV)
- Type: physicochemical
- MEASUREMENT CONTEXT: CV, 3-electrode system; chlorobenzene:acetonitrile=5:1; n-Bu4NPF6 0.1 mol/L
VALUE KIND: E1/2^1, half-wave potential of the first reduction wave (V vs Fc/Fc^++)
Give the value in V vs Fc/Fc^++ but do not write V vs Fc/Fc^++ after it.

Completed entries (count: 4):
compound="CCCCOCC1N(c2ccccc2)C(c2ccccc2)C23c4c5c6c7c8c9c(c%10c%11c2c2c%12c4c4c%13c5c5c7c7c8c8c%14c9c%10c9c%10c%11c2c2c%11c%12c4c4c%12c%13c5c5c7c7c8c8c%14c9c9c%10c2c2c%11c4c4c%12c5c7c5c8c9c2c45)C613 (centres unmarked) [Compound 4]" assay_result=−1.17
compound="COCCOCCOCC1N(c2ccccc2)C(c2ccccc2)C23c4c5c6c7c8c9c(c%10c%11c2c2c%12c4c4c%13c5c5c7c7c8c8c%14c9c%10c9c%10c%11c2c2c%11c%12c4c4c%12c%13c5c5c7c7c8c8c%14c9c9c%10c2c2c%11c4c4c%12c5c7c5c8c9c2c45)C613 (centres unmarked) [Compound 3]" assay_result=−1.17
compound="CCCCCCC1N(c2ccccc2)C(c2ccccc2)C23c4c5c6c7c8c9c(c%10c%11c2c2c%12c4c4c%13c5c5c7c7c8c8c%14c9c%10c9c%10c%11c2c2c%11c%12c4c4c%12c%13c5c5c7c7c8c8c%14c9c9c%10c2c2c%11c4c4c%12c5c7c5c8c9c2c45)C613 (centres unmarked) [Compound 1]" assay_result=−1.16
compound="C1=CC2=c3ccc4c5ccc6c7ccc8c9ccc%10c%11c%12c%13c%14c(c3c4c3c5c6c4c7c8c(c%119)c%13c4c%143)C23C(c2ccccc2)N(c2ccccc2)CC%123C=%101 (centres unmarked) [Control Compound 1, reference compound]" assay_result=−1.13

Here's the next entry for you.
Fill blank: measured E1/2^1, half-wave potential of the first reduction wave of the compound COC(=O)CCCC1(c2ccccc2)C23c4c5c6c7c8c9c(c%10c%11c2c2c%12c4c4c%13c5c5c7c7c8c8c%14c9c%10c9c%10c%11c2c2c%11c%12c4c4c%12c%13c5c5c7c7c8c8c%14c9c9c%10c2c2c%11c4c4c%12c5c7c5c8c9c2c45)C613 (centres unmarked) [[60]PCBM, reference compound] is ____.
−1.13

* * *

Below, each entry is listed alongside its reported Solubility in Toluene.
- TEST DETAILS: Solubility measured with a toluene solution (absorbance of the supernatant of a supersaturated solution)
- Type: physicochemical
- MEASUREMENT CONTEXT: room temperature, from absorbance and molar extinction coefficient
Give the value in % but do not write % after it.

compound="COCCOCCOCC1N(c2ccccc2)C(c2ccccc2)C23c4c5c6c7c8c9c(c%10c%11c2c2c%12c4c4c%13c5c5c7c7c8c8c%14c9c%10c9c%10c%11c2c2c%11c%12c4c4c%12c%13c5c5c7c7c8c8c%14c9c9c%10c2c2c%11c4c4c%12c5c7c5c8c9c2c45)C613 (stereo not drawn) [Compound 3]" value_kind="Solubility in Toluene" assay_result=0.5
compound="CCCCC(CC)CC1N(c2ccccc2)C(c2ccccc2)C23c4c5c6c7c8c9c(c%10c%11c2c2c%12c4c4c%13c5c5c7c7c8c8c%14c9c%10c9c%10c%11c2c2c%11c%12c4c4c%12c%13c5c5c7c7c8c8c%14c9c9c%10c2c2c%11c4c4c%12c5c7c5c8c9c2c45)C613 (stereo not drawn) [Compound 2]" value_kind="Solubility in Toluene" assay_result=1.0

Here's the next entry for you.
Fill blank: measured Solubility in Toluene of the compound CCCCCCC1N(c2ccccc2)C(c2ccccc2)C23c4c5c6c7c8c9c(c%10c%11c2c2c%12c4c4c%13c5c5c7c7c8c8c%14c9c%10c9c%10c%11c2c2c%11c%12c4c4c%12c%13c5c5c7c7c8c8c%14c9c9c%10c2c2c%11c4c4c%12c5c7c5c8c9c2c45)C613 (stereo not drawn) [Compound 1] is ____.
0.5
